Every entry's value here was drawn from the supplement of paper PMC7125110.

Overview of recorded self-cleavage kobs at 2500 uM GlcN6P for various variants
B1: glmS ribozyme (parent)
chain: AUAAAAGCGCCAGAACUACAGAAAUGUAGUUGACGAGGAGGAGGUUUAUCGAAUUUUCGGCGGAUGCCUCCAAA

variants of: B1; experiment: self-cleavage kobs at 2500 uM GlcN6P; higher = faster cleavage; RNA array; details: with glucosamine-6-phosphate
Fewer inactive variants are shown than the library holds.
Supply the numeric figure in s⁻¹, leaving out any unit text.

// worked examples, self-cleavage kobs at 2500 uM GlcN6P included
G29U G40A U65A: 3.42e-05
C11U C16G C70G: 5.75e-05
A15G C16A: 0.000524

Quick one: self-cleavage kobs at 2500 uM GlcN6P for U65G G66U ? 0.000789

Quick one: self-cleavage kobs at 2500 uM GlcN6P for C11U U31C ? 0.000364

Quick one: self-cleavage kobs at 2500 uM GlcN6P for G13A C67G ? 3.63e-05

Quick one: self-cleavage kobs at 2500 uM GlcN6P for G41A C70A ? 0.000253

Quick one: self-cleavage kobs at 2500 uM GlcN6P for C16G A52G U55G ? 9.56e-05

Quick one: self-cleavage kobs at 2500 uM GlcN6P for A64G U65G ? 0.00174

Quick one: self-cleavage kobs at 2500 uM GlcN6P for U46A U69A ? 0.00022

Quick one: self-cleavage kobs at 2500 uM GlcN6P for G40U A53G ? 0.00316

Quick one: self-cleavage kobs at 2500 uM GlcN6P for A15C A48U ? 2.83e-05

Quick one: self-cleavage kobs at 2500 uM GlcN6P for C11A U30G ? 0.000172
